- test protocol: CCTE_Deisenroth_DEVTOX-GLR_legacy_CellCount: (Legacy) Viability Assessment in CCTE's DevTox GLR-Endo Assay, Deisenroth Lab (AID 2284331)
- recorded conditions: actives raise or lower the signal
Calls of active or inactive are those of the source. Rule for the calls: active = hit-call score of the fitted dose curve at least 0.9, where 1 is the maximum; inactive = score below 0.9.
Entries and their AC50 values follow.

Consider CCCCCN=C(N)N/N=C/c1c[nH]c2ccc(OC)cc12 . Its measured AC50 is 5.09 µM (active)

Consider COc1cc2c(Nc3ccc(Br)cc3F)ncnc2cc1OCC1CCN(C)CC1 . Its measured AC50 is 4.51 µM (active)

Consider O=c1[nH]c(=O)n([C@H]2C[C@H](O)[C@@H](CO)O2)cc1Br . Its measured AC50 is 10.2 µM (active)

Consider CNC(=O)c1cc(Oc2ccc(NC(=O)Nc3ccc(Cl)c(C(F)(F)F)c3)cc2)ccn1 . Its measured AC50 is 1.11 µM (active)

Consider O=C1Cc2cc(CCN3CCN(c4nsc5ccccc45)CC3)c(Cl)cc2N1 . Its measured AC50 is 3.31 µM (active)

----------
- tested system: Cellular tumor antigen p53 (Homo sapiens)
- test protocol: TOX21_p53_BLA_p5_ratio: Tox21 HCT-116 p53 Agonism Beta-lactamase Assay, Ratio, Phase 5 (AID 2283599)
Records with an inconclusive call do not appear. Calls of active or inactive are those of the source. The calls were made as follows: active = hit-call score of the fitted dose curve at least 0.9, where 1 is the maximum; inconclusive = response in the unintended direction; inactive = score below 0.9.
Answer with one of the outcomes label 1 = active, label 0 = inactive

compound | tested system | cat
CC(C)CC(=O)CC(C)CC(C)C (stereo not given) | Cellular tumor antigen p53 (Homo sapiens) | label 0
CC(C)(C)CC(C)(C)c1ccc(OCCO)cc1 | Cellular tumor antigen p53 (Homo sapiens) | label 0
C#CCC(Cc1cnc2nc(N)nc(N)c2n1)c1ccc(C(=O)N[C@@H](CCC(=O)O)C(=O)O)cc1 (stereo not given in full) | Cellular tumor antigen p53 (Homo sapiens) | label 1
Clc1cc(Cl)c(OCC#CI)cc1Cl | Cellular tumor antigen p53 (Homo sapiens) | label 1

Tell me the assay call for c1cnccn1 please.
label 0

Tell me the assay call for CCCCCCOc1ccc(C(=N)N(CCCC)CCCC)c2ccccc12 please.
label 1

Tell me the assay call for NC(N)=Nc1nc(CSCCC(N)=NS(N)(=O)=O)cs1 please.
label 0

Tell me the assay call for CCC(C)Nc1ccc(NC(C)CC)cc1 (stereo not given) please.
label 0

Tell me the assay call for CC(C)OC(C)C please.
label 0

----------
- test protocol: TOX21_p53_BLA_p3_viability: Viability Assessment in the Tox21 HCT-116 p53 Agonism Beta-lactamase Assay, Phase 3 (AID 2283593);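 note: cells exposed to compound for 16 h before reading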
Results filed as inconclusive are left out. The source made the active and inactive calls. The calls were made as follows: active = hit-call score of the fitted dose curve at least 0.9, where 1 is the maximum; inconclusive = response in the unintended direction; inactive = score below 0.9.
Answer with one of the outcomes T for active, F for inactive

Would you please look over these solved cases?
molecule | cat
CN(C)CCN(C)CCN(C)C | F
C1OCOCO1 | F
CC[C@@]1(O)C(=O)OCc2c1cc1n(c2=O)Cc2cc3c([N+](=O)[O-])cccc3nc2-1 | T
C[C@H]1O[C@@H](n2cc(F)c(=O)[nH]c2=O)[C@H](O)[C@@H]1O | T

Tell me the assay call for Nc1nc2c(c(=O)[nH]1)N(C=O)C(CNc1ccc(C(=O)N[C@@H](CCC(=O)O)C(=O)O)cc1)CN2 (some centres undefined) please.
F

Tell me the assay call for COc1cc(NS(=O)(=O)c2ccc(N)cc2)nc(C)n1 please.
F

Tell me the assay call for CCCCC(CC)CN1CN(CC(CC)CCCC)CC(C)(N)C1 (centres undefined) please.
F

Tell me the assay call for COC(=O)[C@H]1[C@H]2C[C@@H]3c4[nH]c5cc(OC)ccc5c4CCN3C[C@H]2C[C@@H](OC(=O)COc2ccc(OC)cc2)[C@@H]1OC please.
F
